Each recorded value in this set is attributed to ChEMBL document CHEMBL5442219.

- Assay System: Muscarinic acetylcholine receptor M4 (Homo sapiens)
- Cond: Compound concentration 10 µM; call rule not given here
Pick from True for active, False for inactive when you respond.

Prompt: I'd appreciate the recorded outcome for CN[C@@H]1CCc2[nH]c3ccc(C(N)=O)cc3c2C1 from this test.
Completion: False

Others:
Prompt: # lookup: test call for O=C(O)C1CN(Cc2ccc(OCc3ccc(Cl)c(Cl)c3)cc2)C1
Completion: False

Prompt: Test call, this compound: c1cc(CN2CCCNCCNCCCNCC2)ccc1CN1CCCNCCNCCCNCC1
Completion: False

Prompt: What call does the record list for O=C(Nc1ccc(Cl)cc1)Nc1cccc(-c2cccc(N3CCCC3)n2)c1 ?
Completion: False

Prompt: Please let me know the test result on file for O=c1ccn([C@@H]2O[C@H](COP(=O)(O)OP(=O)(O)O)[C@@H](O)[C@H]2O)c(=O)[nH]1 .
Completion: False

Prompt: State the result this test recorded for CN1C[C@H](C(=O)N[C@]2(C)O[C@@]3(O)[C@@H]4CCCN4C(=O)[C@H](Cc4ccccc4)N3C2=O)C[C@@H]2c3cccc4[nH]cc(c34)C[C@H]21 .
Completion: False

Prompt: Check the results log: what was the call for Cc1cc(NC(=O)NCCN2CCC(O)(Cc3ccccc3)CC2)c2ccccc2n1 ?
Completion: False

Prompt: How did this test come out for O=S1(=O)c2cccc3cccc(c23)N1CCCN1CCN(c2ccc(F)cc2)CC1 ?
Completion: False

Prompt: Look up the recorded call for CCC(=O)NCC[C@@H]1CCc2ccc3c(c21)CCO3 in this test.
Completion: False

Prompt: Kindly provide the recorded test outcome for the following compound: COc1cc(-n2cnc3cc(-c4ccc(Cl)cc4)sc3c2=O)ccc1OCCN1CCCC1
Completion: True

Prompt: What did this assay record as the result for CCCCc1nc(Cl)c(CO)n1Cc1ccc(-c2ccccc2-c2nnn[nH]2)cc1 ?
Completion: False

Prompt: # lookup: test call for CNC[C@H](O)c1cccc(O)c1
Completion: False

Prompt: Look up the recorded call for O=C(Cc1ccc(Cl)c(Cl)c1)N1CCCC[C@H]1CN1CCCC1 in this test.
Completion: False

Prompt: # fetch the recorded call for N#Cc1cccc(C(=O)Nc2cc(-c3ccccc3)nn2-c2ccccc2)c1 here
Completion: False

Prompt: Record lookup: outcome of this test for Cc1ccccc1C(=O)Nc1ccc(C(=O)N2CCCC(O)c3cc(Cl)ccc32)c(C)c1 (stereo not given) ?
Completion: False

Prompt: What is the recorded call for this compound in the test? CCc1nn2c(C)cc(C)nc2c1Cc1ccc(-c2nnc(C3CCNCC3)o2)cc1
Completion: False

Prompt: Lab log entry: NC(=O)[C@@H]1CCCN1C(=O)[C@H](Cc1c[nH]cn1)NC(=O)[C@@H]1CCC(=O)N1 — outcome as called in the assay?
Completion: False

Prompt: Kindly provide the recorded test outcome for the following compound: CC(C)C[C@H](NC(=O)N1CCCCCC1)C(=O)N[C@H](Cc1cn(C)c2ccccc12)C(=O)N[C@H](Cc1ccccn1)C(=O)O
Completion: False

Prompt: For this compound, state the assay outcome: CSc1ccc(C(=O)N[C@@H]2CCCC[C@@H]2NC(=O)CNC(=O)c2cc(C(F)(F)F)ccc2NC(=O)NC(C)C)cc1
Completion: False

Prompt: What did this assay record as the result for c1ccc(N2CCN(Cc3nc4ccccc4[nH]3)CC2)nc1 ?
Completion: False
